method: total protein half-life in vivo (active degradation + dilution); higher = more stable protein
assay-conditions: wild type E. coli NCM3722; growth: N-lim chemostat; doubling time 12 h
reported-metric: total protein half-life in vivo
Answer with the value and then the unit.

Examples with their reported total protein half-life in vivo follow.
seq-string: MTSPNILLTRIDNRLVHGQVGVTWTSTIGANLLVVVDDVVANDDIQQKLMGITAETYGFGIRFFTIEKTINVIGKAAPHQKIFLICRTPQTVRKLVEGGIDLKDVNVGNMHFSEGKKQISSKVYVDDQDLTDLRFIKQRGVNVFIQDVPGDQKEQIPD
result: 6.28 h

seq-string: MSDVLRPYRDLFPQIGQRVMIDDSSVVIGDVRLADDVGIWPLVVIRGDVHYVQIGARTNIQDGSMLHVTHKSSYNPDGNPLTIGEDVTVGHKVMLHGCTIGNRVLVGMGSILLDGAIVEDDVMIGAGSLVPQNKRLESGYLYLGSPVKQIRPLSDEEKAGLRYSANNYVKWKDEYLDQGNQTQP [P0A9W9]
result: 8.69 h

seq-string: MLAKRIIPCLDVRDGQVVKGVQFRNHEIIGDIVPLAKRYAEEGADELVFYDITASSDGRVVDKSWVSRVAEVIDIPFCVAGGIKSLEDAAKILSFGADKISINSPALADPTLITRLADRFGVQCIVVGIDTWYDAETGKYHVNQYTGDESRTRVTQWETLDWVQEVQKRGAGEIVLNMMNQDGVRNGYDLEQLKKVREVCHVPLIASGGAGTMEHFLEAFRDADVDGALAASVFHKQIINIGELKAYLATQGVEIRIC
result: 7.26 h

Moving on to the next sequence.
Can you look up the measured total protein half-life in vivo of MIKLSNITKVFHQGTRTIQALNNVSLHVPAGQIYGVIGASGAGKSTLIRCVNLLERPTEGSVLVDGQELTTLSESELTKARRQIGMIFQHFNLLSSRTVFGNVALPLELDNTPKDEVKRRVTELLSLVGLGDKHDSYPSNLSGGQKQRVAIARALASNPKVLLCDEATSALDPATTRSILELLKDINRRLGLTILLITHEMDVVKRICDCVAVISNGELIEQDTVSEVFSHPKTPLAQKFIQSTLHLDIPEDYQERLQAEPFTDCVPMLRLEFTGQSVDAPLLSETARRFNVNNNIISAQMDYAGGVKFGIMLTEMHGTQQDTQAAIAWLQEHHVKVEVLGYV for me? 12.7 h
